activity at 2 µg/mL values by entry
# Test system: P. falciparum 3D7 parasites
# Experiment Description: P. falciparum growth inhibition assay, 2-cycle (120 h treatment), delayed-death screen and dose-response
# Type: cell-based, Plasmodium falciparum
# Run Parameters: Plasmodium falciparum, 3D7; library screen at 2 μg/mL, 120 h, % growth, replicate 2; read-out: Pf_120h_%Growth_Rep2
Where a SMILES comes first, the peptide text is derived from it. [ ]: non-standard residue; d: D form. aIle = CC[C@@H](C)[C@H](N)C(=O)O
Give your result in % as a bare value.

Example cases with answers are listed next.
>  <Compound>
C[C@H]1O[C@H](O[C@H]2[C@H](O)[C@@H](O)[C@@H](O[C@H]3[C@H](O)[C@@H](O)C(O)O[C@@H]3CO)O[C@@H]2CO)[C@H](O)[C@@H](O)[C@@H]1N[C@H]1C=C(CO)[C@@H](O)[C@H](O)[C@H]1O (stereo partly shown)

>  <Unit Text>
%

>  <activity at 2 µg/mL>
82.2

$$$$
>  <Compound>
CC[C@@H](C)[C@@H]1NC(=O)[C@@H](CC(C)C)NC(=O)[C@H](CC(C)C)NC(=O)[C@H](Cc2c[nH]c3ccccc23)NC(=O)CNC(=O)[C@H](CC(N)=O)NC1=O [Desotamide] (cyclo(GWL[dL][aIle]N))

>  <Unit Text>
%

>  <activity at 2 µg/mL>
50.7

$$$$
>  <Compound>
CO[C@H]1C[C@@H]2CC[C@@H](C)[C@@](O)(O2)C(=O)C(=O)N2CCCC[C@H]2C(=O)O[C@H]([C@H](C)C[C@@H]2CC[C@@H](OCCO)[C@H](OC)C2)CC(=O)[C@H](C)/C=C(\C)[C@@H](O)[C@@H](OC)C(=O)[C@H](C)C[C@H](C)/C=C/C=C/C=C/1C

>  <Unit Text>
%

>  <activity at 2 µg/mL>
69.3

$$$$

Consider the additional compound presented here.
Sample CC[C@@H]1/C=C(\C)C[C@H](C)C[C@H](OC)[C@H]2O[C@@](O)(C(=O)C(=O)N3CCCC[C@H]3C(=O)O[C@H](/C(C)=C/[C@@H]3CC[C@@H](O)[C@H](OC)C3)[C@H](C)[C@@H](O)CC1=O)[C@H](C)C[C@@H]2OC — what was its activity at 2 µg/mL?
40.4

====

# System: P. falciparum 3D7 parasites
# Experiment Description: P. falciparum growth inhibition assay, 1-cycle (72 h treatment), SYBR DNA staining (library screen at 2 μg/mL and dose-response)
# Assay type: cell-based, Plasmodium falciparum
# Run Parameters: Plasmodium falciparum, 3D7; library screen at 2 μg/mL, 72 h, % growth, replicate 2; read-out: Pf_72h_%Growth_Rep2
*1 amine or outer side, *2 acyl side, *3 side chain or, on linkers, in order; H or OH if unused. Where a SMILES comes first, the peptide text is derived from it. Bridges are numbered along the chain shown (N, C = ends). Roman numbers before positions name the chains, in order. [ ]: non-standard residue; d: D form. Actinocin(9to1) = Cc1c2oc3c(C)ccc(C(=O)[*:1])c3nc-2c(C(=O)[*:2])c(N)c1=O; NMeV = CN[C@H](C(=O)O)C(C)C; Sar = CNCC(=O)O
activity at 2 µg/mL values by entry
Give your result in % as a bare value.

Example cases with answers are listed next.
>  <Compound>
CCc1c(Cl)c(O)c(Cl)c(O)c1C(=O)O[C@H]1[C@H](O)[C@H](OC)[C@H](OC/C2=C\C=C\C[C@H](O)/C(C)=C/[C@H](CC)[C@@H](O[C@@H]3OC(C)(C)[C@@H](OC(=O)C(C)C)[C@H](O)[C@@H]3O)/C(C)=C/C(C)=C/C[C@@H]([C@@H](C)O)OC2=O)O[C@@H]1C [fidaxomicin, reference compound]

>  <Attribute Measured>
activity at 2 µg/mL

>  <Data Value>
-1.42

$$$$
>  <Compound>
Cc1c2oc3c(C)ccc(C(=O)N[C@@H]4C(=O)N[C@H](C(C)C)C(=O)N5CCC[C@H]5C(=O)N(C)CC(=O)N(C)[C@@H](C(C)C)C(=O)O[C@@H]4C)c3nc-2c(C(=O)N[C@@H]2C(=O)N[C@H](C(C)C)C(=O)N3CCC[C@H]3C(=O)N(C)CC(=O)N(C)[C@@H](C(C)C)C(=O)O[C@@H]2C)c(N)c1=O [Actinomycin D] (I: T[dV]P[Sar][NMeV] / II: T[dV]P[Sar][NMeV]; ester I:1-I:C, II:1-II:C; linker I:N-II:N via Actinocin(9to1))

>  <Attribute Measured>
activity at 2 µg/mL

>  <Data Value>
5.02

$$$$

Sample Cc1cc(O)c2c(c1)C(=O)c1cc(O)cc(O)c1C2=O [Emodin] — what was its activity at 2 µg/mL?
86.6

Sample CC(C)C[C@H](NC(=O)[C@@H](O)[C@H](N)Cc1ccccc1)C(=O)O [Bestatin] — what was its activity at 2 µg/mL?
3.89

Sample CC[C@H](C)[C@H]1C(=O)O[C@H](C(C)C)C(=O)N(C)[C@@H](C(C)C)C(=O)O[C@H](C(C)C)C(=O)N(C)[C@@H](C(C)C)C(=O)O[C@H](C(C)C)C(=O)N1C [Enniatin B1] — what was its activity at 2 µg/mL?
3.05

====

# Tested on: P. falciparum 3D7 parasites
# Experiment Description: P. falciparum growth inhibition assay, 1-cycle (72 h treatment), SYBR DNA staining (library screen at 2 μg/mL and dose-response)
# Format: cell-based, Plasmodium falciparum
# Run Parameters: P. falciparum 3D7, 72 h, library screen at 2 μg/mL, % growth, replicate 1
Where Pf_72h_%Growth_Rep1 equals or exceeds 80%, the correct label is Met; where it does not, the label is Not met.

Completed entries (count: 4):
>  <Molecule>
CCCCCCCCCCCCCCCC(=O)NC1CCOC1=O (centres unmarked)

>  <Classification>
Met

$$$$
>  <Molecule>
Cc1cc(O)c(O)c2oc(=O)c3c(O)cc(O)cc3c12

>  <Classification>
Met

$$$$
>  <Molecule>
CCCCCC(=O)OC1C(C)OC(OC2C(C)OC(OC3C(CC=O)CC(C)C(O)C=CC=CCC(C)OC(=O)CC(O)C3OC)C(O)C2N(C)C)CC1(C)O (centres unmarked)

>  <Classification>
Not met

$$$$
>  <Molecule>
Cc1cc(OC(=O)c2c(C)cc(O)cc2O)cc(O)c1C(=O)O

>  <Classification>
Not met

$$$$

Does the reported Pf_72h_%Growth_Rep1 for CC(C=CC1OC(=O)C=CC1C)=CC(C)CC=CC(C)=CC(C)C(=O)C(C)C(O)C(C)CC(C)=CC(=O)O (centres unmarked) fall at or above the 80% mark?
Not met

====

# System: T. gondii RH strain (RH-Tub-eYFP) tachyzoites
# Experiment Description: microbe, parasite or virus in culture
# Type: cell-based, Toxoplasma gondii
# Run Parameters: Toxoplasma gondii, 72 h, T. gondii, 72 h, screen at 2 μg/mL, replicate 1; read-out: Tg_72h_%Growth_Rep1
Attribute Measured: percent parasite growth at 2 µg/mL (%)
Give your result in % as a bare value.

Example cases with answers are listed next.
>  <Molecule>
CC[C@H]1OC(=O)C[C@@H](O)[C@H](C)[C@@H](O[C@@H]2O[C@H](C)[C@@H](O[C@H]3C[C@@](C)(O)[C@@H](O)[C@H](C)O3)[C@H](N(C)C)[C@H]2O)[C@@H](CC=O)C[C@@H](C)C(=O)/C=C/C(C)=C/[C@@H]1CO[C@@H]1O[C@H](C)[C@@H](O)[C@@H](OC)[C@H]1OC [Tylosin, reference compound]

>  <Data Value>
29.4

$$$$
>  <Molecule>
CC[C@H]1CC2CN3CCc4c([nH]c5ccc(OC)cc45)[C@](C(=O)OC)(C2)[C@H]13 (stereo in doubt)

>  <Data Value>
89.9

$$$$
>  <Molecule>
C[C@@H]1C[C@H](C)C[C@H](C)[C@@H](O)CC(=O)O[C@H]([C@@H]2CCC[C@H]2C(=O)O)C/C=C/C=C(/C#N)[C@H](O)[C@@H](C)C1

>  <Data Value>
0.76

$$$$
>  <Molecule>
CS(=O)(=O)c1ccc([C@@H](O)[C@@H](CO)NC(=O)C(Cl)Cl)cc1 [Thiamphenicol, reference compound]

>  <Data Value>
106

$$$$
>  <Molecule>
O=C(O)[C@H]1/C(=C/CO)O[C@@H]2CC(=O)N21 [Clavulanate potassium]

>  <Data Value>
102

$$$$

Consider the additional molecule presented here.
Sample CC1(C)C=Cc2cc3ccc(=O)oc3cc2O1 — what was its percent parasite growth at 2 µg/mL?
146

====

# Test system: P. falciparum 3D7 parasites
# Experiment Description: P. falciparum growth inhibition assay, 2-cycle (120 h treatment), delayed-death screen and dose-response
# Format: cell-based, Plasmodium falciparum
# Run Parameters: P. falciparum, 120 h, parasite screen 2 μg/mL, % growth, replicate 2
Where a SMILES comes first, the peptide text is derived from it. [ ]: non-standard residue; d: D form. d(aIle) = CC[C@H](C)[C@@H](N)C(=O)O; Hica(2S) = CC(C)C[C@H](O)C(=O)O; NMeL = CN[C@@H](CC(C)C)C(=O)O; dNMeL = CN[C@H](CC(C)C)C(=O)O; Hiv = CC(C)[C@H](O)C(=O)O
Where Pf_120h_%Growth_Rep2 equals or exceeds 20%, the correct label is Criterion met; where it does not, the label is Criterion not met.

Completed entries (count: 10):
>  <Molecule>
COc1cc2c(c3oc4cccc(O)c4c(=O)c13)[C@@H]1C=CO[C@@H]1O2

>  <Classification>
Criterion not met

$$$$
>  <Molecule>
CC(C)C[C@@H]1NC(=O)[C@H](C(C)C)NC(=O)[C@H](C(C)C)OC(=O)[C@@H](CC(C)C)NC(=O)[C@@H](C(C)C)NC(=O)[C@H](C(C)C)OC1=O [Sporidesmolide III] (cyclo([Hiv]VL[Hiv][dV][dL]))

>  <Classification>
Criterion met

$$$$
>  <Molecule>
CCCCC[C@@H]1CCCCC[C@@H](O)C[C@H](O)[C@H](O)/C=C/C(=O)O1

>  <Classification>
Criterion met

$$$$
>  <Molecule>
CO[C@H]1[C@@H](OC)C[C@H](C)[C@@H](OC)c2cc(O)cc(c2O)NC(=O)/C(C)=C/C=C\[C@H](OC)[C@@H](OC(N)=O)/C(C)=C/[C@@H]1C [TAN 420E]

>  <Classification>
Criterion not met

$$$$
>  <Molecule>
CN(C)[C@@H]1C(=O)C(C(N)=O)=C(O)[C@@]2(O)C(=O)C3=C(O)c4c(O)cccc4C[C@H]3C[C@@H]12.Cl [Sancycline hydrochloride]

>  <Classification>
Criterion not met

$$$$
>  <Molecule>
CC1(C)CCCC2(C)c3cnncc3CCC12 (stereo not drawn)

>  <Classification>
Criterion met

$$$$
>  <Molecule>
CC[C@H](C)[C@H]1NC(=O)[C@H](C(C)C)OC(=O)[C@H](CC(C)C)N(C)C(=O)[C@H](C(C)C)NC(=O)[C@H](CC(C)C)OC(=O)[C@@H](CC(C)C)NC1=O [Sporidesmolide V] (cyclo([Hica(2S)]V[NMeL][Hiv][d(aIle)][dL]))

>  <Classification>
Criterion met

$$$$
>  <Molecule>
CC[C@H]1CCC[C@H](O)[C@@H](C)C(=O)C2=C[C@@H]3[C@@H](C=C[C@@H]4C[C@@H](O[C@@H]5O[C@@H](C)[C@H](OC)[C@@H](OC)[C@H]5OC)C[C@@H]34)[C@@H]2CC(=O)O1 [Spinosyn A pseudoaglycone]

>  <Classification>
Criterion not met

$$$$
>  <Molecule>
CC1(C)C=Cc2c(ccc3ccc(=O)oc23)O1

>  <Classification>
Criterion met

$$$$
>  <Molecule>
CC(C)[C@H]1C(=O)OC[C@H](NC(=O)c2nc3ccccc3cc2O)C(=O)N2CCCC[C@@H]2C(=O)NCC(=O)N(C)CC(=O)N(C)[C@H](C(C)C)C(=O)OC[C@@H](NC(=O)c2nc3ccccc3cc2O)C(=O)N2CCCC[C@@H]2C(=O)NCC(=O)N(C)CC(=O)N1C

>  <Classification>
Criterion not met

$$$$

Does the reported Pf_120h_%Growth_Rep2 for CC1=C[C@]2(C)/C=C(C)/C=C/C[C@@H](O)/C=C3C=C/C(=C4\C(=O)O[C@]2(C[C@@H]1C)C4=O)OC/3 [Spirohexenolide A] fall at or above the 20% mark?
Criterion not met

Does the reported Pf_120h_%Growth_Rep2 for CC[C@@H](C(=O)[C@@H](C)[C@@H](O)[C@H](C)[C@@H]1O[C@@H]([C@@H](CC)C(=O)O)CC[C@@H]1C)[C@H]1O[C@]2(C=C[C@@H](O)[C@]3(CC[C@@](C)([C@H]4CC[C@](O)(CC)[C@H](C)O4)O3)O2)[C@H](C)C[C@@H]1C [Salinomycin sodium] fall at or above the 20% mark?
Criterion not met

Does the reported Pf_120h_%Growth_Rep2 for CC(=O)O[C@@H]1CC(=O)OC(C)(C)[C@H]2CC[C@@]3(C)[C@@H](CC=C(C)[C@]34C[C@]3(OC(C)=C(C)C3=O)C(=O)O4)[C@@]21C fall at or above the 20% mark?
Criterion met

Does the reported Pf_120h_%Growth_Rep2 for C=CC(C)(C)c1[nH]cnc1/C=C1/NC(=O)[C@@H]2C[C@@]3(C(C)(C)C=C)c4ccccc4N[C@H]3N2C1=O fall at or above the 20% mark?
Criterion not met

Does the reported Pf_120h_%Growth_Rep2 for Cc1cc(O)c(C=O)c2c1C(=O)Oc1c(CO)c(O)c3c(c1O2)C(O)OC3=O (stereo not drawn) fall at or above the 20% mark?
Criterion met

Does the reported Pf_120h_%Growth_Rep2 for CC(C)C[C@@H]1NC(=O)[C@H](C(C)C)NC(=O)[C@H](C(C)C)OC(=O)[C@@H](CC(C)C)N(C)C(=O)[C@@H](C(C)C)NC(=O)[C@H](C(C)C)OC1=O [Sporidesmolide I] (cyclo([Hiv]VL[Hiv][dV][dNMeL])) fall at or above the 20% mark?
Criterion met

Does the reported Pf_120h_%Growth_Rep2 for C=C1CC[C@H](OC(C)=O)C(C)(C)[C@@H]1CC/C(C)=C/CC/C(C)=C/Cc1c(O)cc(C)oc1=O fall at or above the 20% mark?
Criterion met
